- MEASUREMENT_PROTOCOL: The drug is tested on WLS-077 corresponding to human gut metagenome with ENA study accession number: PRJEB37062 and ENA sample accession number: ERS12561750 for biotransformation under anaerobic condition. The drug concentrations were measured over 9 timepoints collected between 0 and 24 hours of incubation by liquid-chromatography-coupled mass spectrometry (LC–MS); further: call rule not given here
- APPLIED_CONDITIONS: 2 µM

{"COMPOUND": "CCOc1ccc(NC(C)=O)cc1 [PHENACETIN]", "Bacterial Biotransformation": "Compound NOT metabolized"}
{"COMPOUND": "CN1C(=O)CCS(=O)(=O)C1c1ccc(Cl)cc1 (stereo not drawn) [CHLORMEZANONE]", "Bacterial Biotransformation": "Compound NOT metabolized"}
{"COMPOUND": "Cc1nc(-c2ccc(OCC(C)C)c(C#N)c2)sc1C(=O)O [FEBUXOSTAT]", "Bacterial Biotransformation": "Compound metabolized"}
{"COMPOUND": "COC1=CC(=O)C[C@@H](C)[C@]12Oc1c(Cl)c(OC)cc(OC)c1C2=O [GRISEOFULVIN]", "Bacterial Biotransformation": "Compound metabolized"}
{"COMPOUND": "COc1ccc2c(c1OC)C(=O)O[C@@H]2[C@H]1c2c(cc3c(c2OC)OCO3)CCN1C [NOSCAPINE]", "Bacterial Biotransformation": "Compound metabolized"}
{"COMPOUND": "CC(CN1c2ccccc2Sc2ccccc21)N(C)C (stereo not drawn) [PROMETHAZINE]", "Bacterial Biotransformation": "Compound NOT metabolized"}
{"COMPOUND": "CCC(=O)NCC[C@@H]1CCc2ccc3c(c21)CCO3 [RAMELTEON]", "Bacterial Biotransformation": "Compound metabolized"}
{"COMPOUND": "O=C(Nc1ccccc1)OCC(CN1CCCCC1)OC(=O)Nc1ccccc1 (stereo not drawn) [DIPERODON]", "Bacterial Biotransformation": "Compound NOT metabolized"}
{"COMPOUND": "C[C@@H]1C[C@H]2[C@@H]3CCC4=CC(=O)C=C[C@]4(C)[C@@]3(F)[C@@H](O)C[C@]2(C)[C@@]1(O)C(=O)CO [DEXAMETHASONE]", "Bacterial Biotransformation": "Compound NOT metabolized"}
{"COMPOUND": "CC(=O)OCC(=O)[C@@]12N=C(C)O[C@@H]1C[C@H]1[C@@H]3CCC4=CC(=O)C=C[C@]4(C)[C@H]3[C@@H](O)C[C@@]12C [DEFLAZACORT]", "Bacterial Biotransformation": "Compound metabolized"}
{"COMPOUND": "COc1ccccc1OCC(O)COC(N)=O (stereo not drawn) [METHOCARBAMOL]", "Bacterial Biotransformation": "Compound NOT metabolized"}
{"COMPOUND": "COc1c(C)c2c(c(O)c1C/C=C(\\C)CCC(=O)OCCN1CCOCC1)C(=O)OC2 [MYCOPHENOLATE MOFETIL]", "Bacterial Biotransformation": "Compound metabolized"}
{"COMPOUND": "O=C(CCCN1CCC(O)(c2ccc(Cl)cc2)CC1)c1ccc(F)cc1 [HALOPERIDOL]", "Bacterial Biotransformation": "Compound NOT metabolized"}
{"COMPOUND": "O=c1[nH]c2ccccc2n1CCCN1CCC(n2c(=O)[nH]c3cc(Cl)ccc32)CC1 [DOMPERIDONE]", "Bacterial Biotransformation": "Compound NOT metabolized"}
{"COMPOUND": "CC(C)NCC(O)COc1ccc(CCOCC2CC2)cc1 (stereo not drawn) [BETAXOLOL]", "Bacterial Biotransformation": "Compound NOT metabolized"}
{"COMPOUND": "OC(Cn1cncn1)(Cn1cncn1)c1ccc(F)cc1F [FLUCONAZOLE]", "Bacterial Biotransformation": "Compound NOT metabolized"}
{"COMPOUND": "COCCc1ccc(OCC(O)CNC(C)C)cc1.COCCc1ccc(OCC(O)CNC(C)C)cc1.O=C(O)C(O)C(O)C(=O)O (stereo not drawn) [METOPROLOL TARTRATE]", "Bacterial Biotransformation": "Compound NOT metabolized"}
{"COMPOUND": "CNCCC(Oc1ccc(C(F)(F)F)cc1)c1ccccc1 (stereo not drawn) [FLUOXETINE]", "Bacterial Biotransformation": "Compound NOT metabolized"}
{"COMPOUND": "CC(C)(C(=O)O)c1ccc(C(O)CCCN2CCC(C(O)(c3ccccc3)c3ccccc3)CC2)cc1 (stereo not drawn) [FEXOFENADINE]", "Bacterial Biotransformation": "Compound NOT metabolized"}
{"COMPOUND": "CC(C)N(CCC(C(N)=O)(c1ccccc1)c1ccccn1)C(C)C.O=P(O)(O)O (stereo not drawn) [DISOPYRAMIDE PHOSPHATE]", "Bacterial Biotransformation": "Compound NOT metabolized"}
{"COMPOUND": "CCN(CC)CC#CCOC(=O)C(O)(c1ccccc1)C1CCCCC1.Cl (stereo not drawn) [OXYBUTYNIN CHLORIDE]", "Bacterial Biotransformation": "Compound metabolized"}
{"COMPOUND": "CC[C@@H](CO)NC(=O)[C@@H]1C=C2c3cccc4c3c(cn4C)C[C@H]2N(C)C1.O=C(O)/C=C\\C(=O)O [METHYSERGIDE MALEATE]", "Bacterial Biotransformation": "Compound NOT metabolized"}
{"COMPOUND": "Cc1ccccc1N1C(=O)c2cc(S(N)(=O)=O)c(Cl)cc2NC1C (stereo not drawn) [METOLAZONE]", "Bacterial Biotransformation": "Compound NOT metabolized"}
{"COMPOUND": "O=C1NCC2(CCN(CCc3ccccc3)CC2)O1 [FENSPIRIDE]", "Bacterial Biotransformation": "Compound NOT metabolized"}
{"COMPOUND": "CN(C)CCc1c[nH]c2ccc(Cn3cncn3)cc12.O=C(O)c1ccccc1 [RIZATRIPTAN BENZOATE]", "Bacterial Biotransformation": "Compound NOT metabolized"}
{"COMPOUND": "CCCc1nn(C)c2c(=O)[nH]c(-c3cc(S(=O)(=O)N4CCN(C)CC4)ccc3OCC)nc12.O=C(O)CC(O)(CC(=O)O)C(=O)O [SILDENAFIL CITRATE]", "Bacterial Biotransformation": "Compound NOT metabolized"}
{"COMPOUND": "CN1C(=O)CC(C)(c2ccccc2)C1=O (stereo not drawn) [METHSUXIMIDE]", "Bacterial Biotransformation": "Compound NOT metabolized"}
{"COMPOUND": "CCCCc1nc(Cl)c(CO)n1Cc1ccc(-c2ccccc2-c2nn[nH]n2)cc1 [LOSARTAN]", "Bacterial Biotransformation": "Compound NOT metabolized"}
{"COMPOUND": "NC12CC3CC(CC(C3)C1)C2 [AMANTADINE]", "Bacterial Biotransformation": "Compound NOT metabolized"}
{"COMPOUND": "CCCCC(=O)N(Cc1ccc(-c2ccccc2-c2nnn[nH]2)cc1)[C@H](C(=O)O)C(C)C", "Bacterial Biotransformation": "Compound metabolized"}
{"COMPOUND": "CC(C)c1nc(CN(C)C(=O)N[C@H](C(=O)N[C@@H](Cc2ccccc2)C[C@H](O)[C@H](Cc2ccccc2)NC(=O)OCc2cncs2)C(C)C)cs1 [RITONAVIR]", "Bacterial Biotransformation": "Compound metabolized"}
{"COMPOUND": "CS(=O)(=O)O.O.O.O.O=C1Cc2cc(CCN3CCN(c4nsc5ccccc45)CC3)c(Cl)cc2N1 [ZIPRASIDONE MESYLATE]", "Bacterial Biotransformation": "Compound NOT metabolized"}
{"COMPOUND": "CN1CCc2c(c3ccccc3n2Cc2ccccc2)C1.CN1CCc2c(c3ccccc3n2Cc2ccccc2)C1.O=S(=O)(O)c1cccc2c(S(=O)(=O)O)cccc12", "Bacterial Biotransformation": "Compound NOT metabolized"}

Origin of measurements: ChEMBL document CHEMBL5724914
